Test system: Fibroblast
TEST METHOD NOTES: Multiplex assay against human fibroblast
Type: toxicity, cell-based
PROTOCOL CONDITIONS: 12 h, 1 µM, compound concentration 1 uM, replicate 1
Can you tell me Population Pyknosed Nuclei (%) for the items I'm about to list?
Write the number in % without appending the unit.

Identify Population Pyknosed Nuclei (%) associated with the compound CNC[C@H](O)c1ccc(O)c(O)c1 [EPINEPHRINE]
16

Please list Population Pyknosed Nuclei (%) recorded for the compound COc1c(C)cc(NC(=O)c2nn(Cc3ccc(F)cc3)c3c2CN(C(=O)c2ccc[nH]2)C[C@]3(C)C(N)=O)cc1C
20

Return Population Pyknosed Nuclei (%) for the following compound: Cc1ccc(F)cc1C(=O)Nc1ccc(C(=O)N2Cc3cccn3Cc3ccccc32)c(Cl)c1
15

Specify Population Pyknosed Nuclei (%) for CCCn1c(=O)c2[nH]c(C3CCCC3)nc2n(CCC)c1=O and stop.
15

In one line, give reported Population Pyknosed Nuclei (%) of the entry CCNC1(C(N)=O)CCN(c2ncnc3c2nc(-c2ccccc2Cl)n3-c2ccc(Cl)cc2)CC1 .
17

Check the records and state Population Pyknosed Nuclei (%) for CCCN1CCC[C@@H]2Cc3n[nH]cc3C[C@H]21.Cl [QUINPIROLE HYDROCHLORIDE]
20

Entry CN(C)c1ccnc2sc3c(=O)n(N4CCCCCC4)cnc3c12 needs its Population Pyknosed Nuclei (%) filled in; supply it.
18

Kindly indicate its recorded Population Pyknosed Nuclei (%). Item: CCCC(CCC)C(=O)O
21

Input O=C(O)c1cc2ccccc2c(Cc2c(O)c(C(=O)O)cc3ccccc23)c1O , output reported Population Pyknosed Nuclei (%).
7

Entry C[C@@H]1C[C@H]2[C@@H]3CCC4=CC(=O)C=C[C@]4(C)[C@@]3(F)[C@@H](O)C[C@]2(C)[C@@]1(O)C(=O)CO needs its Population Pyknosed Nuclei (%) filled in; supply it.
15

Name the recorded Population Pyknosed Nuclei (%) of the compound listed here: N[C@@]1(C(=O)O)CO[C@H]2[C@H](C(=O)O)[C@H]21
11

// fetch Population Pyknosed Nuclei (%) given entry COc1cc(C(=O)N(CCCc2ccccc2)Cc2ccc(CC(=O)O)cc2)cc(OC)c1C
12
